Molecular target: Neurogenic locus notch homolog protein 3 (Homo sapiens) (UniProt Q9UM47)
Sequence (Q9UM47 whole entry, looked up): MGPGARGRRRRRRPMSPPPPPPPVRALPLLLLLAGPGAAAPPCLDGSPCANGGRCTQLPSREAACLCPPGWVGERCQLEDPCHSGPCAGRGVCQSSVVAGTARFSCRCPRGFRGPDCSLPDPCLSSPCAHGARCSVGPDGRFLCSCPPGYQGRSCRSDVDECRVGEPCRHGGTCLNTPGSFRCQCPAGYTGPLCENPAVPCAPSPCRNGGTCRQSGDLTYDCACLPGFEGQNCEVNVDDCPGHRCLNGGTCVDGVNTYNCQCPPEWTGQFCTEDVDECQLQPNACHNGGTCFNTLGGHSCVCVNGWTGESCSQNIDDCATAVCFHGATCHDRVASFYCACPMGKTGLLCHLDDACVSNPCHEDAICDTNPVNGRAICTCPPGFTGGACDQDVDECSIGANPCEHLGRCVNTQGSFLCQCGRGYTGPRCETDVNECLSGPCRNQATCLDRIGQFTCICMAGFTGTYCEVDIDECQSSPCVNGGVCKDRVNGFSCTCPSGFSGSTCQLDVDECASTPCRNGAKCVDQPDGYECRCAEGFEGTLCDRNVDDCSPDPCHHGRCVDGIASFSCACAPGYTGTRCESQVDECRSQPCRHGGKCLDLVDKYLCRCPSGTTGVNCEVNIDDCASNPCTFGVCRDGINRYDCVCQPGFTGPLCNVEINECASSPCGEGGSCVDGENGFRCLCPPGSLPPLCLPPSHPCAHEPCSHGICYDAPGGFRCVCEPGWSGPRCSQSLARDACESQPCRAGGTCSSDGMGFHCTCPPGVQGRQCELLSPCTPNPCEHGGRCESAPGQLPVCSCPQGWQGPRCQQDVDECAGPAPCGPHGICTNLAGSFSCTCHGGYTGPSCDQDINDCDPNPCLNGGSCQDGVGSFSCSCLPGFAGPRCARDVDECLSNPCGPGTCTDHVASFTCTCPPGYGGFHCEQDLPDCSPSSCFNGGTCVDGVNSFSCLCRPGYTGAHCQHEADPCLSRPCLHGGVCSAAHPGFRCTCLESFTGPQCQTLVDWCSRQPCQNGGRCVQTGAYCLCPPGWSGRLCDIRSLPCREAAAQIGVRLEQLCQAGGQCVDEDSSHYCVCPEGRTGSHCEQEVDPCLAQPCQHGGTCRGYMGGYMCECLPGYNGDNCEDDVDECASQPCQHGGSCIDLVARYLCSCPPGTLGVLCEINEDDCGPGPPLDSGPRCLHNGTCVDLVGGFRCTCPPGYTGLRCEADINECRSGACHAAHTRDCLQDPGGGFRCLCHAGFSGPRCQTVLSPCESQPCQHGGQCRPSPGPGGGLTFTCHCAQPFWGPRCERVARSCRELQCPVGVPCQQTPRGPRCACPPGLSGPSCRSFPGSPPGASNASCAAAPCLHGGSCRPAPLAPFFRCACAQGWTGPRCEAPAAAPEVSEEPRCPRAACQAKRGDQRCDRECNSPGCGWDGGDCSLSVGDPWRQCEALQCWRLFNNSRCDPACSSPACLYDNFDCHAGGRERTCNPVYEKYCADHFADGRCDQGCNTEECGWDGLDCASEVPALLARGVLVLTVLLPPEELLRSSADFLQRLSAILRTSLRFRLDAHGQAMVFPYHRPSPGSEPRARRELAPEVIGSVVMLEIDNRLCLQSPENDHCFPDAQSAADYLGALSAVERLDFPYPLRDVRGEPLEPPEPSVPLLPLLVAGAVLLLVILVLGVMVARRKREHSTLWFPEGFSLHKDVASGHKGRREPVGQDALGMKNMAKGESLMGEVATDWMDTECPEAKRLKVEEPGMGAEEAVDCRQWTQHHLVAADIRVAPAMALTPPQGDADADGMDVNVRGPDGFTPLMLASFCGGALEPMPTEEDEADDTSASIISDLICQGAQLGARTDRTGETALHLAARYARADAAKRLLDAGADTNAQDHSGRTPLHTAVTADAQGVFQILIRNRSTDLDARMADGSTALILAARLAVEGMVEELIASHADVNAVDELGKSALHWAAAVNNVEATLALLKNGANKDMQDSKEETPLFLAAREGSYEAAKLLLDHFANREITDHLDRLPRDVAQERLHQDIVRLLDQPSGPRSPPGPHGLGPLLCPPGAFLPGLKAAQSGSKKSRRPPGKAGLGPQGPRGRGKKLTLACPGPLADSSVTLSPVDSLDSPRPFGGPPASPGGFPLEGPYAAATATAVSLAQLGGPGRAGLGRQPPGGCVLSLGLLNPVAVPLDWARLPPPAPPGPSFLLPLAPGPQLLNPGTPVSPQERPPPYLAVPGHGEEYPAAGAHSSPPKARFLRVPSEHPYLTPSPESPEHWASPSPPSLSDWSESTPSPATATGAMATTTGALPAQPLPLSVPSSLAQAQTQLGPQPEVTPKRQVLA
Test: small molecules binding NOTCH3 protein – biochemical, 635/667 nm fluorescence, primary screen (AID 1096)
Settings: small-molecule microarray, 635 nm fluorescence, higher = more signal
Measurement Kind: composite z-score

INSERT INTO results (compound_string, measurement_kind, reported) VALUES
  ('COc1cc(CO)cc(I)c1O[C@H]1C=C(C(=O)NCCO)C[C@@H](NC2CCCCCC2)[C@@H]1O', 'composite z-score', 1.01),
  ('COC(=O)C(CC#Cc1ccc2c(c1)[C@]1(C(=O)N2)[C@H](c2ccc(OCCO)cc2)N2[C@H](c3ccccc3)[C@H](c3ccccc3)OC(=O)[C@H]2[C@@H]1C(=O)N1CCCCCCC1)C(=O)OC', 'composite z-score', 1.03),
  ('C=CCN1Cc2ccccc2[C@H]2OC(c3ccc(OCCCO)cc3)=N[C@@]2(CCS(=O)(=O)c2ccccc2)C1=O', 'composite z-score', 1.05),
  ('O=C(NC1CC1)[C@@H]1c2ccccc2C(=O)N(Cc2cc(C(F)(F)F)cc(C(F)(F)F)c2)[C@H]1c1ccc(CO)cc1', 'composite z-score', 0.491);

###

Experiment: blood-stage malaria parasite viability loss – strain 3D7, DAPI fluorescence, 100 nL, primary screen (AID 1184);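 also: parasites grown inside human red blood cells in medium with human serum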
Details: P. falciparum 3D7 growth, 3 d, higher = more signal
Quick reference: z-score of the listed items.
Measurement Kind: z-score

INSERT INTO assay_data (molecule, measurement_kind, reported) VALUES
  ('C[N+](C)(C)CCCC[C@@H]1NC(=O)[C@@H]2C[C@H](C(=O)NCc3ccc(F)cc3)[C@H](c3ccc(O)cc3)N2C1=O', 'z-score', 0.269),
  ('COC(=O)C1=CC(CCCO)=CC(c2cccs2)N(Cc2cc3c(cc2Br)OCO3)C=C1C(=O)OC (stereo not given)', 'z-score', -1.26),
  ('CC(C)c1nc2cc(Br)ccc2c(=O)o1', 'z-score', -0.795),
  ('COC(=O)[C@@]1(Cc2ccc(OC)cc2)[C@H]2c3cc(C(=O)N4CCCC4)n(CCn4cc([N+](=O)[O-])nc4C)c3C[C@H]2CN1C(=O)c1ccccc1', 'z-score', -1.73),
  ('CCOc1cc(C(O)C2C=CC3C(=O)N(c4ccccc4)C(=O)C3N2Nc2ccccc2F)ccc1O (stereo not given)', 'z-score', -0.0969),
  ('N#Cc1ccc(C(O)C2C=CC3C(=O)NC(=O)C3N2Nc2ccc(Cl)cc2Cl)cc1 (stereo not given)', 'z-score', 0.684),
  ('C=C(CCCC)/C(=C/C[C@H](OC(C)=O)c1cccc(OCCO)c1)c1cnc2ccccc2c1', 'z-score', -2.57),
  ('CC(C)C[C@@H]1NC(=O)[C@@H]2C[C@H](C(=O)NCCCCCCNC(=O)CS)[C@H](c3cccc(OCCO)c3)N2C1=O', 'z-score', -0.0654),
  ('O=C1O[C@@H](c2ccccc2)[C@@H](c2ccccc2)N2[C@@H](c3ccc(OCCO)cc3)[C@]3(C(=O)Nc4ccc(C#CC5(O)CCCCCC5)cc43)[C@@H](C(=O)Nc3nc4ccccc4s3)[C@H]12', 'z-score', -1.59),
  ('COc1ccc([Si](C)(C)[C@H]2[C@H](CC(=O)N3Cc4ccccc4C[C@H]3CO)O[C@@]3(C(=O)N(C)c4c(Br)cc(C)cc43)[C@@H]2C)cc1', 'z-score', -2.61),
  ('CCCNC(=O)[C@@]1(Sc2ccc(C)cc2)CC(=O)N(Cc2ccccc2Cl)[C@@H]1c1ccc(CO)cc1I', 'z-score', -0.0495),
  ('CC(C)NC(=O)[C@@H]1c2ccccc2C(=O)N(Cc2ccccc2C(F)(F)F)[C@H]1c1ccc(CO)cc1', 'z-score', -0.276),
  ('COC(=O)C(CC#Cc1ccc2c(c1)[C@]1(C(=O)N2)[C@H](C(=O)NC[C@H](O)c2ccccc2)[C@H]2C(=O)O[C@H](c3ccccc3)[C@H](c3ccccc3)N2[C@@H]1c1ccccc1OCCO)C(=O)OC', 'z-score', -2.33),
  ('CCCCCC1=C2CNC(CC(C)C)(C(=O)OC)C=C2C(C)C1=O (stereo not given)', 'z-score', -0.282),
  ('CCOC(=O)C1=CC[C@@H](c2ccc(OC)cc2)N(S(=O)(=O)c2ccc(C)cc2)[C@H]1CC', 'z-score', -2.03),
  ('COC(=O)[C@@]1(Cc2ccc(OC)cc2)[C@H]2c3cc(C(=O)N4CCCC4)n(Cc4ccc(Cl)c(C(F)(F)F)c4)c3C[C@H]2CN1C(=O)c1ccccc1', 'z-score', -1.37),
  ('C=C(CCCC)/C(=C/C[C@@H](OC(C)=O)c1ccc(CO)o1)c1cnc2ccccc2c1', 'z-score', -1.38),
  ('O=C(NC1CC1)[C@@H]1c2ccccc2C(=O)N(CC23CC4CC(CC(C4)C2)C3)[C@H]1c1ccc(CO)cc1', 'z-score', -2.22),
  ('CC(C)N1C(=O)c2ccccc2[C@@H](C(=O)NCC(F)(F)F)[C@@H]1c1ccc(CO)cc1', 'z-score', 0.872),
  ('C=CCNC(=O)[C@H]1[C@@H]2C(=O)O[C@@H](c3ccccc3)[C@@H](c3ccccc3)N2[C@@H](c2ccc(OCCO)cc2)[C@]12C(=O)Nc1ccccc12', 'z-score', -0.541);

###

Molecular target: Fibroblast growth factor 2 (Homo sapiens) (UniProt P09038)
Sequence (P09038 whole entry, looked up): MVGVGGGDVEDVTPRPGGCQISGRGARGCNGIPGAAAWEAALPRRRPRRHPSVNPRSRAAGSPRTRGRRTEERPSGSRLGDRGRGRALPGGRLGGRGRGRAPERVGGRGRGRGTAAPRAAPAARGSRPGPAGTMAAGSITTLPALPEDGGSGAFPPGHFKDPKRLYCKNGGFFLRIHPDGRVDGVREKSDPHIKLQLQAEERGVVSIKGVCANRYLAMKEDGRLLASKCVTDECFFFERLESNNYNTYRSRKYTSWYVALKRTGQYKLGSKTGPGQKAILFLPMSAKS
Test: basic fibroblast growth factor binding to printed compounds – biochemical, small-molecule microarray, 635/667 nm fluorescence, primary screen (AID 1133)
Settings: FGF2, fluorescence 635/667, higher = more signal
Measurement Kind: composite z-score

INSERT INTO results (molecule, measured_on, measurement_kind, reported) VALUES
  ('C=CCOC(=O)[C@@H]1[C@H]2C(=O)O[C@H](c3ccccc3)[C@H](c3ccccc3)N2[C@H](c2ccc(OCCOC(=O)[C@H]3C[C@H]4C(=O)N[C@@H](CCCCN(C)C)C(=O)N4[C@H]3c3ccc(O)cc3)cc2)[C@@]12C(=O)Nc1ccc(I)cc12', 'Fibroblast growth factor 2 (Homo sapiens) (UniProt P09038)', 'composite z-score', 1.37),
  ('C#CCN1[C@@H](Cc2ccccc2)C(=O)O[C@H](Cc2ccccc2)[C@@H]1/C=C/C1CC1', 'Fibroblast growth factor 2 (Homo sapiens) (UniProt P09038)', 'composite z-score', 0.43),
  ('O=C1[C@H]2C=C(I)[C@H](C[C@@H]2OCCCCCCO)[C@@]12CO2', 'Fibroblast growth factor 2 (Homo sapiens) (UniProt P09038)', 'composite z-score', 0.888),
  ('N#Cc1ccc(-c2cccc(=O)o2)cc1', 'Fibroblast growth factor 2 (Homo sapiens) (UniProt P09038)', 'composite z-score', 0.185),
  ('COc1ccc(C(O)C2C=CC3C(=O)N(c4ccccc4)C(=O)C3N2Nc2ccc([N+](=O)[O-])cc2)c2ccccc12 (stereo unspecified)', 'Fibroblast growth factor 2 (Homo sapiens) (UniProt P09038)', 'composite z-score', 0.54),
  ('COC(=O)C(CC#Cc1ccc2c(c1)[C@]1(C(=O)N2)[C@H](c2ccc(OCCO)cc2)N2[C@H](c3ccccc3)[C@H](c3ccccc3)OC(=O)[C@H]2[C@@H]1C(=O)N1CCCCCCC1)C(=O)OC', 'Fibroblast growth factor 2 (Homo sapiens) (UniProt P09038)', 'composite z-score', 0.724);

###

Assay: growth of efflux-deficient E. coli DRC39 – strain DRC39, OD650, 48 h, E. coli filamentation inducers, primary screen (AID 1179);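 also: screen aims at cell division blockers that make cells filament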
Conditions: E. coli DRC39 delta-acrAB growth, higher = more signal, called active from +8 up or from −8 down
Measurement Kind: z-score

INSERT INTO assay_data (molecule, reported) VALUES
  ('C=CC1c2cc(O)c(OC)cc2CCN1C (stereo not drawn)', 0.113),
  ('COC(=O)[C@@]1(Cc2ccc(F)cc2)[C@H]2c3cc(C(=O)N4CCCC4)n(Cc4ccccn4)c3C[C@H]2CN1C(=O)c1ccccc1', -0.962),
  ('CC(C)(C)OC(=O)CC[C@@]1(C(=O)NCCN2CCOCC2)N=C(c2ccc(OCCCO)cc2)O[C@@H]1c1ccccc1CN=[N+]=[N-]', -0.721);

###

Experiment: probe aDKK1 binding to arrayed compounds – biochemical, biotinylated probe, 635/667 nm fluorescence, primary screen (AID 1099);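 also: score merges 667nm spot fluorescence with signal to noise across triplicate slides; reference of the scale not given here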
Conditions: small-molecule microarray, higher = more signal
Values of composite z-score greater than or equal to 0.02 map to 1.0; values below map to 0.0.

INSERT INTO results (molecule, label_class) VALUES
  ('O=C1O[C@@H](c2ccccc2)[C@@H](c2ccccc2)N2[C@@H](c3ccc(OCCO)cc3)[C@]3(C(=O)Nc4ccc(C#CCCO)cc43)[C@@H](C(=O)O)[C@H]12', 1.0),
  ('CCCC[C@H]1OB(O)C[C@H]2C1=C(COc1ccccc1)C[C@H]1C(=O)C=CC(=O)[C@H]12', 1.0),
  ('CCCNC(=O)[C@@]1(c2ccc([N+](=O)[O-])cc2)CC(=O)N(C(C)C)[C@@H]1c1ccc(CO)cc1', 0.0),
  ('Cc1ccc(C(C)CC(O)C2C=CC3C(=O)N(C)C(=O)C3N2Nc2ccccc2)o1 (centres undefined)', 1.0),
  ('O=C1C2C=CC(C(O)c3cccs3)N(Nc3ccc([N+](=O)[O-])cc3)C2C(=O)N1c1ccccc1 (centres undefined)', 1.0),
  ('C=CCNC(=O)[C@@H]1[C@H]2C(=O)O[C@H](c3ccccc3)[C@H](c3ccccc3)N2[C@H](c2ccc(OCCO)cc2)[C@@]12C(=O)Nc1ccc(C#CC3(O)CCCCCC3)cc12', 1.0),
  ('COC(=O)[C@@]1(Cc2ccc(F)cc2)[C@H]2c3cc(C(=O)N4CCCC4)n(CCc4ccccn4)c3C[C@H]2CN1C(=O)c1ccccc1', 1.0),
  ('COc1ccc([Si](C)(C)[C@H]2[C@H](CC(=O)N3Cc4ccccc4C[C@H]3CO)O[C@@]3(C(=O)N(C)c4ccccc43)[C@@H]2C)cc1', 0.0),
  ('COCCCN1C(=O)[C@@]2(c3ccc([N+](=O)[O-])cc3)CC(=O)N(CC34CC5CC(CC(C5)C3)C4)[C@@H]2c2ccc(CO)cc21', 0.0),
  ('CCOC(=O)C[C@H]1[C@H](OC(=O)c2cc3ccccc3oc2=O)[C@@H](NC(=O)CC(C)C)c2cc(OCCCO)ccc2N1C(=O)Cc1ccc(OC)cc1', 0.0),
  ('COC(=O)C(CC#Cc1ccc2c(c1)[C@]1(C(=O)N2)[C@H](C(=O)NC[C@H](O)c2ccccc2)[C@H]2C(=O)O[C@H](c3ccccc3)[C@H](c3ccccc3)N2[C@@H]1c1ccccc1OCCO)C(=O)OC', 1.0),
  ('O=C(NC1CC1)[C@@H]1c2ccccc2C(=O)N(CC23CC4CC(CC(C4)C2)C3)[C@H]1c1ccc(CO)cc1', 0.0),
  ('CC(C)C[C@@H]1NC(=O)[C@@H]2C[C@H](C(=O)NCCCCCCNC(=O)CS)[C@H](c3cccc(OCCO)c3)N2C1=O', 0.0),
  ('CC(C)N1C(=O)c2ccccc2[C@@H](C(=O)NCC(F)(F)F)[C@@H]1c1ccc(CO)cc1', 0.0),
  ('CCCCCC1=C2CNC(Cc3ccccc3)(C(=O)OC)C=C2C(C)C1=O (centres undefined)', 1.0),
  ('C=CCOC(=O)[C@H]1[C@@H]2C(=O)O[C@@H](c3ccccc3)[C@@H](c3ccccc3)N2[C@@H](c2ccc(OCCOC(=O)[C@@H]3C[C@@H]4C(=O)N[C@@H](CCCCNC(C)=O)C(=O)N4[C@@H]3c3cccc(OCCO)c3)cc2)[C@]12C(=O)Nc1ccccc12', 1.0),
  ('C=CCNC(=O)[C@H]1[C@@H]2C(=O)O[C@@H](c3ccccc3)[C@@H](c3ccccc3)N2[C@@H](c2ccc(OCCO)cc2)[C@]12C(=O)Nc1ccccc12', 0.0),
  ('C=C(COC)/C(=C/C[C@@H](OC(C)=O)c1ccccc1OCCO)c1cnc2ccccc2c1', 0.0);
